Taken from paper PMC3499368.

Below, each entry is listed with its recorded EC50.
system: estrogen receptor ligand binding domain (Capitella capitata)
Sequence (C0IRV2 151-381): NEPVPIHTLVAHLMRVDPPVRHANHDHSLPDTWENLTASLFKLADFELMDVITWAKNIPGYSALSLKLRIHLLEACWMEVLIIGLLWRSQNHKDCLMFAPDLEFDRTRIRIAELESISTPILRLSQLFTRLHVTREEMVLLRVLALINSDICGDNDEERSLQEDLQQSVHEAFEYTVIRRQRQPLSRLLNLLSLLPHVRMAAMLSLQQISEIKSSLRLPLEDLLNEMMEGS
assay: activation of the estrogen receptor ligand binding domain of Capitella capitata
# number only, unit nM dropped from output

[[record]]
compound = "C[C@]12CC[C@@H]3c4ccc(O)cc4CC[C@H]3[C@@H]1CC[C@@H]2O"
system = "estrogen receptor ligand binding domain (Capitella capitata)"
experimental_readout = "EC50"
meas_value = 8.6


Let's switch to this compound now.
What EC50 value was documented for this compound, CC(=O)[C@H]1CCC2C3CCc4cc(O)ccc4C3CC[C@@]21C (some centres unmarked) ?
8.7
